Would you mind telling me the reported logP of each entry?
Answers are plain numbers.

Here is how some compounds turned out for logP.
smiles_str: O=Cc1ccc(Cl)cc1
logP: 2.34

smiles_str: OCc1c2ccccc2cc2ccccc12
logP: 3.04

smiles_str: CCCCCCCc1ccccc1
logP: 5.37

Please state, for each entry, its recorded logP.
1. Oc1ccc(O)c2ccccc12
2. CC1CCCCC1

Reply |
1. 2.24
2. 4.17

Please state, for each entry, its recorded logP.
1. CCc1ccccc1CC
2. Cc1cccc2[nH]ccc12
3. C/C=C/CCCCC
4. CCc1ccccc1O

Reply |
4.1
2.54
4.51
2.36

Please state, for each entry, its recorded logP.
1. CCc1cccc(CC)c1
2. Cc1[nH]c2ccccc2c1C
3. CCCCCCc1ccc(O)cc1O

Reply |
1. 4.16
2. 2.51
3. 3.07

Please state, for each entry, its recorded logP.
1. CCc1ccc(CC)cc1
2. CC(C)(C)C1CCCCC1
3. CCn1c2ccccc2c2ccccc21
4. OCc1ccc2ccccc2c1
5. Oc1cccc2c1CCCC2
6. CCC1CCCCC1
7. CCCCCCCCCCCCc1ccc(O)cc1O

Reply |
4.22
5.04
3.97
2.42
2.87
4.56
5.32
